# experimentalTarget: Recombinant human c-KIT kinase (Homo sapiens (Human), UniProt P10721)
# Sequence (P10721 26-976): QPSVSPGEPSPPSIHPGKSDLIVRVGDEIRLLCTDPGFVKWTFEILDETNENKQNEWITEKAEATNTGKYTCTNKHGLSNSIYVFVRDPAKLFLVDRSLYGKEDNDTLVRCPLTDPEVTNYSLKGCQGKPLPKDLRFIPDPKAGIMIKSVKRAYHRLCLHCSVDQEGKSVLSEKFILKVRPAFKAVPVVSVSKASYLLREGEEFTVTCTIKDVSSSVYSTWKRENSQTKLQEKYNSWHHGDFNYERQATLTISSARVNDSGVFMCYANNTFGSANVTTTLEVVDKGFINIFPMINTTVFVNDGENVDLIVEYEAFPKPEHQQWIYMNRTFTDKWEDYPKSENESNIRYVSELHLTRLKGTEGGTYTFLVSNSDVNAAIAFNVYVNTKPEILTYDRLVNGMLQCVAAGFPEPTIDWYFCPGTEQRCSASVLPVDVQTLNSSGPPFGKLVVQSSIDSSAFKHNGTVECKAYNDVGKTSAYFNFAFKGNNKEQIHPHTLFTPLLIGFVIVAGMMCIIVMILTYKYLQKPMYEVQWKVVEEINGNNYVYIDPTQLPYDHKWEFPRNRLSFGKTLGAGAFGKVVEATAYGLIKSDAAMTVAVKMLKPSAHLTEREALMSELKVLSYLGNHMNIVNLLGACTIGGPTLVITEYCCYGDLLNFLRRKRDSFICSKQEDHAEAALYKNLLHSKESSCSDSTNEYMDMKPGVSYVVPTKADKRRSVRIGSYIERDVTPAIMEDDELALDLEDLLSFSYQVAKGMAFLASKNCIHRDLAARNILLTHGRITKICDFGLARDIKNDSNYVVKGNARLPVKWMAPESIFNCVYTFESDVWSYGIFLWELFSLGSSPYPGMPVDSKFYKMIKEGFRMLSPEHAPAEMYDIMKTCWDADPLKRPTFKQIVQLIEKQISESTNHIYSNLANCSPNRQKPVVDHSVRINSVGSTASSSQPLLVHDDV
# testDescription: c-KIT kinase chemiluminescence assay (ADP-Glo)
# measurementSetup: ATP 50 μM
pIC50: −log10 of the molar value.
This section presents molecules with their documented pIC50 values.
observationType: pIC50

>>> df
                                 itemsmiles                        experimentaltarget  valuemeasured
0  Cc1ccc(-c2noc([C@H]3C[C@@H]3F)n2)cc1NC(=O)c1cnn2cc(-c3c(C)nn(CC(C)(C)O)c3C)ccc12  Recombinant human c-KIT kinase (Homo sapiens (Human), UniProt P10721)         > 7.00
1  Cc1ccc(-c2noc([C@H]3C[C@@H]3F)n2)cc1NC(=O)c1cnn2ccc(N3CC(CO)(C(=O)O)C3)cc12  Recombinant human c-KIT kinase (Homo sapiens (Human), UniProt P10721)   6.00 to 7.00
2  Cc1ccc(-c2noc(C3CC4(C3)CN(C(=O)[C@H]3C[C@@H]3F)C4)n2)cc1NC(=O)c1cnn2ccc(N3CC4(COC4)C3)cc12  Recombinant human c-KIT kinase (Homo sapiens (Human), UniProt P10721)   6.00 to 7.00
3  Cc1cc2cc(-c3ncc(C(=O)Nc4cc(-c5noc([C@H]6C[C@@H]6F)n5)ccc4C)o3)ccc2[nH]1  Recombinant human c-KIT kinase (Homo sapiens (Human), UniProt P10721)         > 7.00
4  Cc1ccc(-c2noc(C3CN(C(=O)N4CC(F)(F)C4)C3)n2)cc1NC(=O)c1cnn2ccc(N3CC4(COC4)C3)cc12  Recombinant human c-KIT kinase (Homo sapiens (Human), UniProt P10721)         < 6.00

* * *

# System: M-07e cells
# testDescription: M-07e cellular assay (SCF-mediated cell proliferation)
# Type: cell-based
# measurementSetup: Homo sapiens, 72 hours, CellTiter Glo
observationType: EC50

>>> print(df.to_string())
                                 itemsmiles  valuemeasured
0  Cc1ccc(-c2noc([C@H]3C[C@@H]3F)n2)cc1NC(=O)c1cnn2ccc(-c3cccnc3)cc12       < 100 nM
1  Cc1cc(C)c(-c2ccn3ncc(C(=O)Nc4cc(-c5noc([C@H]6C[C@@H]6F)n5)ccc4C)c3c2)c(C)c1      > 1000 nM
2  Cc1ccc(-c2noc([C@H]3C[C@@H]3F)n2)c(F)c1NC(=O)c1cnn2ccc(N3CC4(COC4)C3)cc12       < 100 nM
3  Cc1ncc(-c2ccc(C3CC3)cn2)cc1NC(=O)c1cnn2ccc(N3CC4(COC4)C3)cc12       < 100 nM
4  Cc1ccc(-c2noc([C@H]3C[C@@H]3F)n2)cc1NC(=O)c1cnn2cc(-c3cn(C45CC(C4)C5)nn3)ccc12       < 100 nM

* * *

# experimentalTarget: Recombinant human c-KIT kinase (Homo sapiens (Human), UniProt P10721)
# testDescription: c-KIT kinase chemiluminescence assay (ADP-Glo)
# measurementSetup: ATP 50 μM
Entries annotated with measured IC50
observationType: IC50

                                   compound   valuemeasured
0  Cc1ccc(-c2noc([C@H]3C[C@@H]3F)n2)cc1NC(=O)c1cnn2cc(-c3cn(C(F)(F)F)nn3)ccc12 [Example 113]        < 100 nM
1  Cc1ncc(-c2nnn(C3CN(C(=O)OC(C)(C)C)C3)n2)cc1NC(=O)c1cnn2ccc(N3CC4(C3)CC(O)(C(F)F)C4)cc12 [Example 312-9]       > 1000 nM
2  Cc1ccc(-c2noc([C@H]3C[C@@H]3F)n2)cc1NC(=O)c1cnn2cc(-c3cnn(C(F)F)c3)ccc12 [Example 133]        < 100 nM
3  Cc1ncc(-c2noc(C3CC(F)(F)C3)n2)cc1NC(=O)c1cnn2ccc(N3CC4(C3)CC(O)(C(F)F)C4)cc12 [Example 281-69]  100 to 1000 nM
4  Cc1ccc(-c2noc([C@H]3C[C@@H]3F)n2)cc1NC(=O)c1cnn2ccc(N3CCNC[C@H]3C)cc12 [Example 195]        < 100 nM
5  Cc1ccc(-c2noc([C@H]3C[C@@H]3F)n2)cc1NC(=O)c1cnn2ccc(N3CCN(C(=O)OC(C)(C)C)C[C@@H]3C)cc12 [Example 191]        < 100 nM
6  Cc1ccc(-c2noc([C@H]3C[C@@H]3F)n2)cc1NC(=O)c1cnn2cc(C3CC3)ccc12 [Example 56]        < 100 nM
7  Cc1ccc(-c2noc([C@H]3C[C@@H]3F)n2)cc1NC(=O)c1cnn2ccc(N3CC4(CCOC4)C3)cc12 [Example 183]        < 100 nM

* * *

# System: M-07e cells
# testDescription: M-07e cellular assay (SCF-mediated cell proliferation)
# Type: cell-based
# measurementSetup: Homo sapiens, 72 hours, CellTiter Glo
pEC50: −log10 of the molar value.
observationType: pEC50

                                    molecule  observationtype  valuemeasured
 0  Cc1ccc(-c2noc([C@H]3C[C@@H]3F)n2)cc1NC(=O)c1cnn2ccc(OC3COC3)cc12            pEC50         > 7.00
 1  Cc1ccc(-c2noc([C@H]3C[C@@H]3F)n2)cc1NC(=O)c1cnn2cc(C3CC3)ccc12            pEC50   6.00 to 7.00
 2  Cc1ccc(-c2noc([C@H]3C[C@@H]3F)n2)cc1NC(=O)c1cnn2ccc(N3CC4(C3)CN(S(C)(=O)=O)C4)cc12            pEC50         > 7.00
 3  Cc1cc2cc(-c3ncc(C(=O)Nc4cc(-c5noc([C@H]6C[C@@H]6F)n5)ccc4C)o3)ccc2[nH]1            pEC50         > 7.00
 4  Cc1ccc(-c2noc([C@H]3C[C@@H]3F)n2)cc1NC(=O)c1cnc(-c2ccc3c(c2)C(C)C(=O)N3)o1 (some centres unmarked)            pEC50   6.00 to 7.00
 5  Cc1ccc(-c2noc([C@]3(C)C[C@H](OC(F)F)C3)n2)cc1NC(=O)c1cnn2ccc(N3CC4(COC4)C3)cc12            pEC50         > 7.00
 6  Cc1ccc(-c2noc([C@H]3C[C@@H]3F)n2)cc1NC(=O)c1cnn2cc(F)c(N3CC4(COC4)C3)cc12            pEC50   6.00 to 7.00
 7  CC#Cc1ccc2c(C(=O)Nc3cc(-c4noc([C@H]5C[C@@H]5F)n4)ccc3C)cnn2c1            pEC50   6.00 to 7.00
 8  Cc1ccc(-c2noc([C@H]3C[C@@H]3F)n2)cc1NC(=O)c1cnc(-c2ccccc2)n1C            pEC50         < 6.00
 9  Cc1ccc(-c2noc([C@H]3C[C@@H](OC(F)F)C3)n2)cc1NC(=O)c1cnn2ccc(N3CC4CC(C3)O4)cc12            pEC50   6.00 to 7.00
10  Cc1ccc(-c2noc([C@H]3C[C@@H]3F)n2)cc1NC(=O)c1cnn2ccc(N3CC4(CN(C)C4)C3)cc12            pEC50   6.00 to 7.00
11  Cc1ncc(-c2noc(N3CC(F)(F)C3)n2)cc1NC(=O)c1cnn2ccc(N3CC4(COC4)C3)cc12            pEC50   6.00 to 7.00
12  Cc1sc(-c2noc(C3CN(C(=O)C4(F)CC4)C3)n2)cc1NC(=O)c1cnn2ccc(N3CC4(C3)CC(O)(C(F)F)C4)cc12            pEC50   6.00 to 7.00
13  COC(=O)N1CC(c2nc(-c3cc(NC(=O)c4cnn5ccc(N6CC7(C6)CC(O)(C(F)F)C7)cc45)c(C)cc3F)no2)C1            pEC50         > 7.00
14  Cc1cc(F)c(-c2noc([C@H]3C[C@@H]3F)n2)cc1NC(=O)c1cnn2ccc(N3CC4(COC4)C3)cc12            pEC50         > 7.00
15  Cc1ccc(-c2noc([C@H]3C[C@@H]3F)n2)cc1NC(=O)c1cnn2ccc(-c3cn(CC(C)(C)O)nn3)cc12            pEC50         > 7.00
16  Cc1ccc(-c2noc([C@H]3C[C@@H]3F)n2)cc1NC(=O)c1cnn2cc(-c3cnnn3CCO)ccc12            pEC50   6.00 to 7.00

* * *

Quick reference: pEC50 of the listed items.
# System: M-07e cells
# testDescription: M-07e cellular assay (SCF-mediated cell proliferation)
# Assay type: cell-based
# measurementSetup: Homo sapiens, 72 hours, CellTiter Glo
pEC50: −log10 of the molar value.
observationType: pEC50

                                   molecule  experimentaltarget  valuemeasured
0  Cc1ncc(-c2noc([C@@H]3CN(CC(F)(F)F)[C@H]3C)n2)cc1NC(=O)c1cnn2ccc(N3CC4(C3)CC(O)(C(F)F)C4)cc12 [Example 281-12]         M-07e cells   6.00 to 7.00
1  Cc1ccc(-c2ccn3ncc(C(=O)Nc4cc(-c5noc([C@H]6C[C@@H]6F)n5)ccc4C)c3c2)c(C)n1 [Example 171-15]         M-07e cells         > 7.00
2  [2H]C([2H])([2H])c1ccc(-c2noc([C@H]3C[C@@H](OC(F)F)C3)n2)cc1NC(=O)c1cnn2ccc(N3CC4(COC4)C3)cc12 [Example 281-4]         M-07e cells         > 7.00
3  Cc1ccc(-c2noc([C@H]3C[C@@H]3F)n2)cc1NC(=O)c1cnc(-c2ccc(N)nc2)o1 [Example 287]         M-07e cells   6.00 to 7.00
